assay: Half life in Tris buffer pH 8 at 100 uM by HPLC analysis; assay type: ADME
Starred links: 1 amine or outer side, 2 acyl side, 3 side chain; linkers in the order of their positions; H or OH if unused. Non-standard residues stand in square brackets, D forms with d. Residues, ends and D or L forms follow the SMILES beside them. *: point of attachment. X1 = NP(=O)(OCc1c(F)c(F)c(N*)c(F)c1F)N(CCCl)CCCl; X3 = NP(=O)(OCc1c(F)cc(N*)cc1F)N(CCCl)CCCl; X5 = NP(=O)(OCc1ccc(N*)cc1F)N(CCCl)CCCl; Glutaryl = O=C(CCCC(=O)[*:2])[*:1]; Hyp = O=C(O)[C@@H]1C[C@@H](O)CN1; Chg = N[C@H](C(=O)O)C1CCCCC1
Would you kindly list half-life at 100 µM for each of these compounds?
Dear colleague, please return just the value in h, with no unit written.

# lookup: half-life at 100 µM of C[C@H](NC(=O)[C@@H]1C[C@@H](O)CN1C(=O)CCCC(=O)O)C(=O)N[C@@H](CO)C(=O)N[C@H](C(=O)N[C@@H](CCC(N)=O)C(=O)Nc1cc(F)c(COP(N)(=O)N(CCCl)CCCl)c(F)c1)C1CCCCC1 (stereo partly drawn) (Glutaryl-[Hyp]AS[Chg]Q-X3)
131

# lookup: half-life at 100 µM of C[C@H](NC(=O)[C@@H]1C[C@@H](O)CN1C(=O)CCCC(=O)O)C(=O)N[C@@H](CO)C(=O)N[C@H](C(=O)N[C@@H](CCC(N)=O)C(=O)Nc1ccc(COP(N)(=O)N(CCCl)CCCl)c(F)c1)C1CCCCC1 (stereo partly drawn) (Glutaryl-[Hyp]AS[Chg]Q-X5)
105

# lookup: half-life at 100 µM of C[C@H](NC(=O)[C@@H]1C[C@@H](O)CN1C(=O)CCCC(=O)O)C(=O)N[C@@H](CO)C(=O)N[C@H](C(=O)N[C@@H](CCC(N)=O)C(=O)Nc1c(F)c(F)c(COP(N)(=O)N(CCCl)CCCl)c(F)c1F)C1CCCCC1 (stereo partly drawn) (Glutaryl-[Hyp]AS[Chg]Q-X1)
178

###

assay: Half life in Tris buffer pH 8 at 100 uM by HPLC analysis; type: ADME
Starred links: 1 amine or outer side, 2 acyl side, 3 side chain; linkers in the order of their positions; H or OH if unused. Non-standard residues stand in square brackets, D forms with d. Residues, ends and D or L forms follow the SMILES beside them. *: point of attachment. X2 = NP(=O)(OCc1ccc(N*)c(F)c1)N(CCCl)CCCl; X4 = NP(=O)(OCc1ccc(N*)cc1)N(CCCl)CCCl; Glutaryl = O=C(CCCC(=O)[*:2])[*:1]; Hyp = O=C(O)[C@@H]1C[C@@H](O)CN1; Chg = N[C@H](C(=O)O)C1CCCCC1
measuredProperty: half-life at 100 µM (days)
Dear colleague, please return just the value in days, with no unit written.

# lookup: half-life at 100 µM of C[C@H](NC(=O)[C@@H]1C[C@@H](O)CN1C(=O)CCCC(=O)O)C(=O)N[C@@H](CO)C(=O)N[C@H](C(=O)N[C@@H](CCC(N)=O)C(=O)Nc1ccc(COP(N)(=O)N(CCCl)CCCl)cc1F)C1CCCCC1 (some centres not stated) (Glutaryl-[Hyp]AS[Chg]Q-X2)
19.4

# lookup: half-life at 100 µM of C[C@H](NC(=O)[C@@H]1C[C@@H](O)CN1C(=O)CCCC(=O)O)C(=O)N[C@@H](CO)C(=O)N[C@H](C(=O)N[C@@H](CCC(N)=O)C(=O)Nc1ccc(COP(N)(=O)N(CCCl)CCCl)cc1)C1CCCCC1 (some centres not stated) (Glutaryl-[Hyp]AS[Chg]Q-X4)
1.92
